Reported pIC50 values follow for various molecules
# measured target: UniProt P25100
# Sequence (P25100 whole entry): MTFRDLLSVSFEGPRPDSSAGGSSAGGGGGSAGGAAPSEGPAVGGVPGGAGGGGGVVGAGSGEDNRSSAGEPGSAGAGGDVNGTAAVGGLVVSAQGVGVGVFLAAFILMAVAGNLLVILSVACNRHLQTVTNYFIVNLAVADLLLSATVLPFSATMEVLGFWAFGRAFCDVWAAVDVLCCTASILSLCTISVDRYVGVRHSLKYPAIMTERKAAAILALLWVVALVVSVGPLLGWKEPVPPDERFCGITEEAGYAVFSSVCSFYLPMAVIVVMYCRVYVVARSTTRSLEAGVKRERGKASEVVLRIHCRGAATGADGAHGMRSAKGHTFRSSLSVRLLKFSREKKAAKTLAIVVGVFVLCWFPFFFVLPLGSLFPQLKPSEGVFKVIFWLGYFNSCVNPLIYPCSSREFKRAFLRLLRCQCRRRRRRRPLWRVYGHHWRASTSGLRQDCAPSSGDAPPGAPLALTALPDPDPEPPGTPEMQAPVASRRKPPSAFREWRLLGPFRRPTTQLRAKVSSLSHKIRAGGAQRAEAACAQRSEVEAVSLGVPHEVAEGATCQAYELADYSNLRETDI
pIC50: −log10 of the molar value.
quantity name: pIC50

cpd_smiles=CSc1ccccc1NCc1cnc[nH]1 reported_measurement=7.24
cpd_smiles=CSc1ccccc1NCC1=NCCN1 reported_measurement=7.71
cpd_smiles=c1ccc(-c2ccccc2OCc2c[nH]cn2)cc1 reported_measurement=6.03
cpd_smiles=c1ccc(-c2ccccc2OCC2=NCCN2)cc1 reported_measurement=6.26
